# System Under Test: HLA-B*07:02
# Assay Procedure: IEDB peptide-MHC binding, purified MHC/competitive/radioactivity; filed as Kd, often an IC50 or EC50 that approximates it; bounds were set here for any values at or beyond the usual limits of such assays
# Experimental Setup: source organism: Dengue virus 1 Brazil/97-11/1997
Reported Kd values are given for each entry in this list.
Measured Property: Kd (nM)

INSERT INTO results (construct_sequence, unit_abbreviation, observed_result) VALUES
  ('SPGKFWNTTI', 'nM', 5.6),
  ('RSRWSRKMLM', 'nM', 154),
  ('EPHWIAASI', 'nM', 267);

###

# System Under Test: HLA-B*07:02
# Assay Procedure: IEDB peptide-MHC binding, purified MHC/direct/fluorescence; filed as Kd, often an IC50 or EC50 that approximates it; bounds were set here for any values at or beyond the usual limits of such assays
# Experimental Setup: source organism: Vibrio cholerae
pKd: −log10 of the molar value.
Measured Property: pKd

INSERT INTO results (construct_sequence, measured_property, observed_result) VALUES
  ('ALYWALMES', 'pKd', '≤ 4.70'),
  ('WAGIWGGKL', 'pKd', 4.89),
  ('VVYKEAKIK', 'pKd', '≤ 4.70');
